Molecular target: T1, full-length beta-Catenin (Uniprot ID P35222) (Homo sapiens (Human), UniProt P35222 1-781)
T1 construct: also called bCat; B-Catenin
T1 sequence: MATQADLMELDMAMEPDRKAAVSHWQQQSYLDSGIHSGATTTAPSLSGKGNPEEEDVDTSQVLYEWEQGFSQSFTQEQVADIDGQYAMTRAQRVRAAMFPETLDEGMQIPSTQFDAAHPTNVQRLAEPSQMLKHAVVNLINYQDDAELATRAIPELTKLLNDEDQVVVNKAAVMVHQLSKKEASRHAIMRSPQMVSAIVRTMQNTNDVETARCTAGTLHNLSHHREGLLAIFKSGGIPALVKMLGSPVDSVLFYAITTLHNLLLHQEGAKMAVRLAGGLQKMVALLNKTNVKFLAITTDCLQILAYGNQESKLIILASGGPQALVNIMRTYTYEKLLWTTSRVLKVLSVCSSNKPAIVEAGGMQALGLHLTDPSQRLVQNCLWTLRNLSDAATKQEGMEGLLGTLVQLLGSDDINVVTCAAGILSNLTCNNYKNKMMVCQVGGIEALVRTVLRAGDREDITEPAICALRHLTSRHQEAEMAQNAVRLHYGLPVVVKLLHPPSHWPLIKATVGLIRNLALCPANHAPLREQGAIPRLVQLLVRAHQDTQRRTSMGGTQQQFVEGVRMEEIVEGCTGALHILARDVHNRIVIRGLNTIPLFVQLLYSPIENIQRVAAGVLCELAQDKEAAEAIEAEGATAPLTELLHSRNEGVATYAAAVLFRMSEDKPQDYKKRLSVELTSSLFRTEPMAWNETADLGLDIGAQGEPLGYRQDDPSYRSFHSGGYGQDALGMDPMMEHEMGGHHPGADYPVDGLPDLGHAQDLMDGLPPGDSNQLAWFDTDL
Assay: fluorescence polarization competition; full-length beta-catenin with 5FAM-TCF4(10-53) probe as competitor
Starred links: 1 amine or outer side, 2 acyl side, 3 side chain; linkers in the order of their positions; H or OH if unused. Positions of bridges follow the written chain, without caps; N, C: chain ends. Non-standard residues stand in square brackets, D forms with d. Primed or numbered codes have the meaning given here. B5(4) = 2,2-bis(4-pentenyl)glycine = 2-amino-2-(pent-4-en-1-yl)hept-6-enoic acid (stitching residue), C=CCCCC(CCCC=C)(N[*:1])C(=O)[*:2]; Bta = N[C@@H](Cc1csc2ccccc12)C(=O)O; αAllylPro = C=CC[C@@]1(C(=O)O)CCCN1; S8 = C=CCCCCCC[C@](C)(N)C(=O)O; NMeS = CN[C@@H](CO)C(=O)O
Hi there, I'd appreciate the recorded pIC50 for every entry that follows.
Please report pIC50 as the negative decimal logarithm of the molar concentration, giving only the number.

Exercise: Name the reported pIC50 value associated with the binder Ac-[αAllylPro]DL[B5(4)]DEAAFN[S8]F[Bta][dN]-NH2 (staple 1-4, 4-11; also: earlier eluting HPLC peak (staple isomer), Stapled peptide; same description as I-758, earlier eluting HPLC peak (staple isomer composition); also called Ac-PL3-Asp-Leu-B5-Asp-Glu-Ala-Ala-Phe-Asn-S8-Phe-BztA-dAsn-NH2) [I-757]
Key: 7.19

Exercise: Next binder up: Ac-[αAllylPro]DL[B5(4)]DEAAFN[S8]F[Bta][NMeS]-NH2 (staple 1-4, 4-11; also: earlier eluting HPLC peak (staple isomer), Stapled peptide; same description as I-760, earlier eluting HPLC peak (staple isomer composition); also called Ac-PL3-Asp-Leu-B5-Asp-Glu-Ala-Ala-Phe-Asn-S8-Phe-BztA-NMeS-NH2) [I-759]
Key: 5.81

Exercise: Thanks! And Ac-[αAllylPro]DL[B5(4)]DEAAFN[S8]F[Bta]N-NH2 (staple 1-4, 4-11; also: olefin E/Z not assigned, earlier-eluting staple isomer, Stapled peptide; also called Ac-PL3-Asp-Leu-B5-Asp-Glu-Ala-Ala-Phe-Asn-S8-Phe-BztA-Asn-NH2) [I-752] ?
Key: 7.80

Cited source for all entries: patent US20240116985A1
